Provenance of the data: ChEMBL document CHEMBL3865843

- TARGET_UNDER_TEST: Histamine H1 receptor (Homo sapiens)
- Sequence (P35367 whole entry): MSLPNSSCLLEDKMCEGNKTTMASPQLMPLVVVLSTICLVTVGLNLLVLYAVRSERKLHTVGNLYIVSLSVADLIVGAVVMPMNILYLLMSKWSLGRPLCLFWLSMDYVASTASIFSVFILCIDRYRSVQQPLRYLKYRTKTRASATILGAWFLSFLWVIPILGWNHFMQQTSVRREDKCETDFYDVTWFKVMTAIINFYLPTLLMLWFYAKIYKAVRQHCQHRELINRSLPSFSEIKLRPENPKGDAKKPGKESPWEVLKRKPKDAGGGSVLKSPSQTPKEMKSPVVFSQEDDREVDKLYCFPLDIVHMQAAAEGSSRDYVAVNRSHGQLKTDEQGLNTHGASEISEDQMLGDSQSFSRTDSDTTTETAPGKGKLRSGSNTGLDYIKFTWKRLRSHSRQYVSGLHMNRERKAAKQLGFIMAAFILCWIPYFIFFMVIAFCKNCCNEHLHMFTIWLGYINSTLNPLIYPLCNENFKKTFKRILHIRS
A collection of compounds and their measured Ki
Field format: number, assumed nM, no unit text.

Field: example entries. Status: answers known.
INPUT_SMILES	TARGET_UNDER_TEST	UOM	Ki
CN(C)CCOc1ccccc1Cc1ccccc1	Histamine H1 receptor (Homo sapiens)	nM	12.6
C[N+]1(C)CCC(Oc2ccccc2Cc2ccccc2)CC1	Histamine H1 receptor (Homo sapiens)	nM	25.1
NCCCOc1ccccc1Cc1ccccc1	Histamine H1 receptor (Homo sapiens)	nM	316

Query compound follows.
Problem: Hi! What's the reported Ki for c1ccc(Cc2ccc(OC3CCNCC3)cc2)cc1 on Histamine H1 receptor (Homo sapiens)?
Solution: 10000
